fold difference in affinity vs original reference
assay_system: binding partner of C5A (XPA23)
experiment_notes: Biacore, K-off
Form entry: enter the amount, then its unit.

// below: answered binders
binder: C5A (XPA23) VH G56K (antibody, V domains shown) VH: EVQLLESGGGLVQPGGSLRLSCAASGFTFSKYFMFWVRQAPGKGLEWVSVISPSGKMTRYADSVKGRFTISRDNSKNTLYLQMNSLRAEDTAVYYCARVGYGGNSDYWGQGTLVTVSS VL: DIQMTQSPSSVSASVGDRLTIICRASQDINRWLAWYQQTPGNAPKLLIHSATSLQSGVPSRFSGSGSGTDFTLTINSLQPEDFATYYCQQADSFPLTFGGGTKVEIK
assay_metric: fold difference in affinity vs original
measured_result: 2.05 fold
--
binder: C5A (XPA23) VH T58N (antibody, V domains shown) VH: EVQLLESGGGLVQPGGSLRLSCAASGFTFSKYFMFWVRQAPGKGLEWVSVISPSGGMNRYADSVKGRFTISRDNSKNTLYLQMNSLRAEDTAVYYCARVGYGGNSDYWGQGTLVTVSS VL: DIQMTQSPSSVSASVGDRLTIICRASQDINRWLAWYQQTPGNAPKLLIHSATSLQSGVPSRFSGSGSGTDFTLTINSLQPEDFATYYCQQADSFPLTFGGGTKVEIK
assay_metric: fold difference in affinity vs original
measured_result: 0.9 fold
--
binder: C5A (XPA23) VH T58D (antibody, V domains shown) VH: EVQLLESGGGLVQPGGSLRLSCAASGFTFSKYFMFWVRQAPGKGLEWVSVISPSGGMDRYADSVKGRFTISRDNSKNTLYLQMNSLRAEDTAVYYCARVGYGGNSDYWGQGTLVTVSS VL: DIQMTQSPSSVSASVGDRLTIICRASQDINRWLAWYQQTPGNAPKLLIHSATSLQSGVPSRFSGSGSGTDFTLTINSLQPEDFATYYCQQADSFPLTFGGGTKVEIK
assay_metric: fold difference in affinity vs original
measured_result: 0.12 fold
--
binder: C5A (XPA23) VH S105E (antibody, V domains shown) VH: EVQLLESGGGLVQPGGSLRLSCAASGFTFSKYFMFWVRQAPGKGLEWVSVISPSGGMTRYADSVKGRFTISRDNSKNTLYLQMNSLRAEDTAVYYCARVGYGGNEDYWGQGTLVTVSS VL: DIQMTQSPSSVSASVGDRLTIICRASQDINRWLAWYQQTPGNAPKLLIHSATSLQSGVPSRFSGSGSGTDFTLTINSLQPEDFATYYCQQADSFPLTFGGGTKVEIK
assay_metric: fold difference in affinity vs original
measured_result: 1.17 fold

Input C5A (XPA23) VH D106R (antibody, V domains shown) VH: EVQLLESGGGLVQPGGSLRLSCAASGFTFSKYFMFWVRQAPGKGLEWVSVISPSGGMTRYADSVKGRFTISRDNSKNTLYLQMNSLRAEDTAVYYCARVGYGGNSRYWGQGTLVTVSS VL: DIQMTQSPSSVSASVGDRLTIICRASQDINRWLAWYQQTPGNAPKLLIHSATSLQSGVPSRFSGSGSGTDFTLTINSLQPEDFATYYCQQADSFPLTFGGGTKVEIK . Output fold difference in affinity vs original: 0.06 fold

These data points were gathered from patent US20110118447A1.
